Measured values drawn from PubChem BioAssay (NCI) for this set.

Assign TGI to each entry below.
System: HOP-62 NSCLC
Test: NCI tumour cell line growth inhibition, 48 h
Only the number, expressed in µM, is required.

HOP-62 NSCLC / TGI / Cn1ccnc1C(=O)/C=C/c1ccc(CC(=O)Nc2ccc(Br)cc2)cc1 : value?
7.9

HOP-62 NSCLC / TGI / CC1OC(OC2C(OC(=O)[C@]34CCC(C)(C)C[C@H]3C3=CC[C@@H]5[C@@]6(C)CC[C@H](OC7OC(C(=O)O)C(O)C(O)C7O)C(C)(C)[C@@H]6CC[C@@]5(C)[C@]3(C)C[C@H]4O)OCC(O)C2O)C(O)C(O)C1OC1OCC(OC2OCC(O)C(O)C2O)C(O)C1O (stereo partly specified) : value?
27.1

HOP-62 NSCLC / TGI / O=C(CCl)N1c2ccccc2Oc2ccc3ccccc3c21 : value?
3.25

HOP-62 NSCLC / TGI / COc1cc2nc(C)nc(N[C@H](C)c3cc(N)cc(C(F)(F)F)c3)c2cc1O[C@H]1CCOC1 : value?
25.6

HOP-62 NSCLC / TGI / CC(=O)[O][Hg][c]1c(N)c(C)cc(C)c1F : value?
5.49

HOP-62 NSCLC / TGI / O=C(Nc1ccc(F)cc1F)c1cc(I)ccc1O : value?
7.87

HOP-62 NSCLC / TGI / CNC(=O)c1cc(Oc2ccc3nc(NC(=O)Nc4ccc(Cl)c(C(F)(F)F)c4)sc3c2)ccn1 : value?
4.74

HOP-62 NSCLC / TGI / COc1cc(/C=C/c2cc(/C=C/c3ccc(O)c(OC)c3)n(C(=O)Nc3ccc(F)cc3)n2)ccc1O : value?
9.36

HOP-62 NSCLC / TGI / C=C1C(=O)[C@@]23CC[C@H]4[C@@](C)(CCC[C@@]4(C)C(=O)OC)[C@@H]2CC[C@]1(O)C3 : value?
34.7
